# TARGET ENTITY: Solute carrier family 2, facilitated glucose transporter member 1 (Homo sapiens) (UniProt P11166)
# Sequence (P11166 whole entry): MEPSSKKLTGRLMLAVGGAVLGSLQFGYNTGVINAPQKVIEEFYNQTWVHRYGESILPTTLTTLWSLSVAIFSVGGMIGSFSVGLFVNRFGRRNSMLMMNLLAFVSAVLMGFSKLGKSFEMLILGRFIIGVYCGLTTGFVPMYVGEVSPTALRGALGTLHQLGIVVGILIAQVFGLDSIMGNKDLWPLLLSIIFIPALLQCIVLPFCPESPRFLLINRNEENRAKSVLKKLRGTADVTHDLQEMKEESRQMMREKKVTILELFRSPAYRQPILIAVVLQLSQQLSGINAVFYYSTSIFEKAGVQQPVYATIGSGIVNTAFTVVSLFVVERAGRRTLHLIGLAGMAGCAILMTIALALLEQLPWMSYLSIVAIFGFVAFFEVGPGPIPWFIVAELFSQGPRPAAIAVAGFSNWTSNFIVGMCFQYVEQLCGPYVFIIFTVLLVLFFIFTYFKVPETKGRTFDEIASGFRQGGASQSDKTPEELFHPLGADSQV
# TEST: ST_JUDE_LEISH: Cytotoxicity at 2uM final concentration against transgenic Leishmania Mexicana promastigotes LmGLUT1 that are glucose transport deficient and complemented with the human glucose transporter GLUT1. Activity is measured by DNA content using SYBR green in vitro
# Assay type: functional
Collected inhibition values appear next to each entry.
Enter your answer as a number in %; do not include the unit.

The cases that follow already have their inhibition on record.
- SMILES TEXT: "CN1CCN(c2ccnc3ccc(NC(=O)Cc4cccc(Cl)c4Cl)cc23)CC1"
  inhibition (%): 1.15
- SMILES TEXT: "CCn1ccc2c(N3CCCCS3(=O)=O)cc(C(=O)N[C@@H](Cc3ccccc3)[C@H](O)CNC(C)(C)c3cccc(C(F)(F)F)c3)cc21"
  inhibition (%): 0.44

## Input Data request, read-out inhibition, for COC(=O)Cn1c2ccccc2c2c(N)c(C(=O)OC)c(C)nc21
## Output 0.93

## Input Data request, read-out inhibition, for CN1CCc2ccc(NC(=O)Nc3ccc(Cl)c(Cl)c3)cc2C1
## Output 4.69

## Input Data request, read-out inhibition, for COc1ccc2nc(-c3cccc(C)n3)nc(Nc3ccncc3)c2c1
## Output 11.6

---

# TARGET ENTITY: Glucose transporter (Leishmania mexicana)
# TEST: ST_JUDE_LEISH: Cytotoxicity at 2uM final concentration against transgenic Leishmania Mexicana promastigotes LmGT2 that are glucose transport deficient and complemented with the L. Mexicana glucose transporter 2. Activity is measured by DNA content using SYBR green in vitro
# Type: functional
Collected inhibition values appear next to each entry.
Enter your answer as a number in %; do not include the unit.

- COMPOUND: "Cc1cc(=NN=Cc2ccccc2Cl)c2ccc(F)cc2[nH]1"
  PROPERTY: "inhibition"
  MEASUREMENT: 3.93
- COMPOUND: "FC(F)(F)c1ccc2[nH]ccc(=NN=Cc3ccc(Cl)cc3)c2c1"
  PROPERTY: "inhibition"
  MEASUREMENT: 2.9
- COMPOUND: "CCOC(=O)C1=C(C)N=c2sc(=Cc3cc(Cl)ccc3O)c(=O)n2C1c1ccc2c(c1)OCO2 (centres undefined)"
  PROPERTY: "inhibition"
  MEASUREMENT: 1.37
- COMPOUND: "COC(=O)c1cccc(CNCc2ccc(-c3ccc(-c4nc5cc(C(F)(F)F)ccc5[nH]4)s3)cc2)c1"
  PROPERTY: "inhibition"
  MEASUREMENT: 0.84
- COMPOUND: "CCCNCc1ccc(-c2ccc(CN(C(=O)c3nn(-c4ccccc4)nc3C)C(C)CN(C)C)cc2)nc1 (centres undefined)"
  PROPERTY: "inhibition"
  MEASUREMENT: 6.31

## Input Data request, read-out inhibition, for N=C(N)c1ccc(NN=Cc2ccc(Oc3ccc(C(=N)N)cc3)cc2)cc1
## Output 0.79

## Input Data request, read-out inhibition, for CC(=O)c1ccc(-c2ccc(C(=O)NCCCCN3CCC(c4ccc5c(c4O)CCCC5)CC3)cc2)cc1
## Output 1.3

## Input Data request, read-out inhibition, for O=C(NCc1ccc(F)cc1)Nc1ccc(-c2ccc(-c3nc4ccccc4[nH]3)cc2)cc1
## Output 0.75

## Input Data request, read-out inhibition, for CC12CCC(CN(CC(O)Cn3c4ccccc4c4cc(I)ccc43)C1)C2(C)C (centres undefined)
## Output 0.07
